Every entry's value here was drawn from patent US9487529B2.

Experimental Target: recombinant human FAK (Homo sapiens)
Construct: purchased Invitrogen PV3832; host or cells: baculovirus expression system
Sequence (Q05397 whole entry): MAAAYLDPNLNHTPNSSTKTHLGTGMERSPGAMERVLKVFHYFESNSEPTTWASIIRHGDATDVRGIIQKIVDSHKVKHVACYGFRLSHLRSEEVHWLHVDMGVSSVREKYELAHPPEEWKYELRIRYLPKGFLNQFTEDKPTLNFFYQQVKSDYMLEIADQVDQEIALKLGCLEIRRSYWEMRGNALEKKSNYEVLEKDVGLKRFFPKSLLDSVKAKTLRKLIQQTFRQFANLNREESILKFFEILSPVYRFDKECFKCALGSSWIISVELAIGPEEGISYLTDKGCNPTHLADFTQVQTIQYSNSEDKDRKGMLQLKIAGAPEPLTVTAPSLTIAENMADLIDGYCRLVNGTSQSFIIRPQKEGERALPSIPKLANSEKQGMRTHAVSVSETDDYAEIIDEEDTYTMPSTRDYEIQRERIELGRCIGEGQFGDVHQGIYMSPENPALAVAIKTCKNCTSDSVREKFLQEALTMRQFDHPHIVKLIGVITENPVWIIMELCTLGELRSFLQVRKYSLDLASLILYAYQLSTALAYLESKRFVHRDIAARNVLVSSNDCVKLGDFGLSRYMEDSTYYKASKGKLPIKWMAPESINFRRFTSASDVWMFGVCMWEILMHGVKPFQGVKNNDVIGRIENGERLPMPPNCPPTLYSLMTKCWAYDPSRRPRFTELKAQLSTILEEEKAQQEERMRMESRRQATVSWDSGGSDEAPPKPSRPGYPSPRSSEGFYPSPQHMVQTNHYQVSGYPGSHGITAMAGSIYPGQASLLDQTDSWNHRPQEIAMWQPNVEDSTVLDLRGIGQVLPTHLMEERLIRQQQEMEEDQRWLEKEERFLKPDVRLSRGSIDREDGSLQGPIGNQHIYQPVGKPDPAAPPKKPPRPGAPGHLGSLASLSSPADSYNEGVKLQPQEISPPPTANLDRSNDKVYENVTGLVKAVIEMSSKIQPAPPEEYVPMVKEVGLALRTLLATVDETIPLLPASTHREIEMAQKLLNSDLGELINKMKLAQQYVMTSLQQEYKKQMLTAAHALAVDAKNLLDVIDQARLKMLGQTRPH
Protocol Description: FAK Enzyme Assay (TRF detection)
Type: biochemical
Test Conditions: 10 μM ATP; average of two or more determinations; class symbols
Procedure: Example compounds were tested for their ability to inhibit the kinase activity of baculovirus-expressed recombinant human FAK using the TRF detection system as described above for JAK2. IC50 runs were performed in 96-well Costar high binding plates (#3922). […] Plates were agitated for 10 minutes and fluorescence of the resulting solution measured using the PerkinElmer EnVision™ 2102 (or 2104) multi-label plate reader. […]
Value Kind: IC50

Some solved entries appear below for comparison.
COc1ccc2cc1Nc1nc(ncc1Cl)Nc1ccc(N3CCOCC3)c(c1)CC2; > 10000 nM
CN1CCN(c2ccc3cc2/C=C\c2ccc(N(C)S(C)(=O)=O)c(c2)Nc2nc(ncc2Cl)N3)CC1; < 10 nM

Input line: Look up IC50: COc1c2cc(c3c1CC[C@@H](N1CCOCC1)CC3)CCc1ccc(N(C)S(C)(=O)=O)c(c1)Nc1nc(ncc1Cl)N2
Output line: 10 to 100 nM

Input line: Again, but for Clc1cnc2nc1Nc1cccc(c1)/C=C\c1cc(ccc1OCCN1CCCC1)N2
Output line: 101 to 1000 nM

Input line: Would you kindly repeat that for CC(C)S(=O)(=O)c1ccc2cc1Nc1nc(ncc1Cl)Nc1ccc(N3CCN(C)CC3)c(c1)CC2 ?
Output line: < 10 nM

Input line: Entry COc1cc(N2CCN(C)CC2)c2cc1Nc1ncc(Cl)c(n1)Nc1cc(ccc1N(C)S(C)(=O)=O)CC2 please
Output line: < 10 nM

Input line: Next molecule: COc1ccc2cc1Nc1nc(ncc1Cl)Nc1ccc(N3CCN(C)CC3)c(c1)CC2
Output line: 10 to 100 nM

Input line: Another: CNC(=O)c1ccc2cc1Nc1nc(ncc1Cl)Nc1ccc(N3CCN(C)CC3)c(c1)CC2
Output line: < 10 nM

Input line: Next: Clc1cnc2nc1Nc1cccc(c1)/C=C\c1cc(ccc1N1CCOCC1)N2
Output line: > 10000 nM

Input line: Then what about the molecule Clc1cnc2nc1Nc1cccc(c1)CCc1cc(ccc1OCCN1CCCC1)N2 ?
Output line: 10 to 100 nM

Input line: Next: COc1cc(N2CCN(C)CC2)c2cc1Nc1ncc(Cl)c(n1)Nc1cccc(c1)CC2
Output line: 101 to 1000 nM

Input line: Would you kindly repeat that for COc1cc(C2CCNCC2)c2cc1Nc1ncc(Cl)c(n1)Nc1cc(ccc1N(C)S(C)(=O)=O)CC2 ?
Output line: < 10 nM
